Target: mouse melanocortin-5 receptor (mouse, UniProt P41149 1-325)
Sequence (P41149 whole entry): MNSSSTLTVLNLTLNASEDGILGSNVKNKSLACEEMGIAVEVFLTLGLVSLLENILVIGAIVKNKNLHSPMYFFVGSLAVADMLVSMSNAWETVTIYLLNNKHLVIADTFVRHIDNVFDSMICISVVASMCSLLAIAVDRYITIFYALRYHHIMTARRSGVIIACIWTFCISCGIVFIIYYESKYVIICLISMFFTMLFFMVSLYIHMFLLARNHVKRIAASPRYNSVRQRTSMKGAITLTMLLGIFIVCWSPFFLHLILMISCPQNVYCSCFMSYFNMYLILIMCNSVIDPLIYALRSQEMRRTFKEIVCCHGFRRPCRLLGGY
Assay: cell-based or functional assay
Provide the reported EC50 (agonist) of each item.
Give bare numbers, in nM.

Answered examples (2):
>>> obs_value("YDHXRXNAFXY (Asp-Dpr side chain lactam bridge; Dpr; DPhe; DNal(2′); C-terminal amide (amide resin)) [SEQ ID NO:40 (Tyr-c[Asp-His-DPhe-Arg-DNal(2′)-Asn-Ala-Phe-Dpr]-Tyr)]")
0.95
>>> obs_value("YDHXAWNAFXY (Asp-Dpr side chain lactam bridge; Dpr; DPhe; C-terminal amide (amide resin)) [SEQ ID NO:26 (Tyr-c[Asp-His-DPhe-Ala-Trp-Asn-Ala-Phe-Dpr]-Tyr)]")
2.06

Can you share its EC50 (agonist)? I mean this binder: YDHXRPNAFXY (Asp-Dpr side chain lactam bridge; Dpr; DPhe; C-terminal amide (amide resin)) [SEQ ID NO:38 (Tyr-c[Asp-His-DPhe-Arg-Pro-Asn-Ala-Phe-Dpr]-Tyr)]
700
